methodDescription: Equilibrium solubility of the compound in fasted-state simulated intestinal fluid at pH 6.5 after 24 hrs by HPLC analysis
Assay type: physicochemical
observable: solubility thermodynamic at 24 h (µg/mL)

[[record]]
inputsmiles = "COc1cc(F)cc2c1c(NS(=O)(=O)c1ccc(Cl)s1)nn2Cc1cccc(CNC(=O)C(C)(C)O)c1"
observable = "solubility thermodynamic at 24 h"
reportedresult = 36

[[record]]
inputsmiles = "COc1cccc2c1c(NS(=O)(=O)c1ccc(Cl)s1)nn2Cc1cccc(CNC(=O)C(C)(C)O)c1"
observable = "solubility thermodynamic at 24 h"
reportedresult = 10


* * *

methodDescription: Volume of distribution at steady state in Beagle dog at 0.5 mg/kg, iv
Assay type: ADME, organism-based, Canis lupus familiaris
Set-up: dose 0.5 mg/kg, route intravenous
conditionInfo: beagle, in vivo, read-out: Vdss
observable: Vd (L/kg)

[[record]]
compound = "COc1cccc2c1c(NS(=O)(=O)c1ccc(Cl)s1)nn2Cc1cccc(CNC(C)=O)c1"
observable = "Vd"
reportedresult = 3.2

[[record]]
compound = "CN[C@H](C)C(=O)NCc1cccc(Cn2nc(NS(=O)(=O)c3ccc(Cl)s3)c3c(OC)cccc32)c1"
observable = "Vd"
reportedresult = 6

[[record]]
compound = "COc1cccc2c1c(NS(=O)(=O)c1ccc(Cl)s1)nn2Cc1cccc(CNC(=O)C2COCCN2C)c1 (single isomer, unassigned; isomer B)"
observable = "Vd"
reportedresult = 5.7

[[record]]
compound = "COc1cccc2c1c(NS(=O)(=O)c1ccc(Cl)s1)nn2Cc1cccc(CNC(=O)[C@@H]2COCCN2)c1"
observable = "Vd"
reportedresult = 3

[[record]]
compound = "COc1cccc2c1c(NS(=O)(=O)c1ccc(Cl)s1)nn2Cc1cccc(CNC(=O)C(C)(C)O)c1"
observable = "Vd"
reportedresult = 2.2

[[record]]
compound = "COc1cccc2c1c(NS(=O)(=O)c1ccc(Cl)s1)nn2Cc1cccc(CNC(=O)C(C)(C)N)c1"
observable = "Vd"
reportedresult = 5


* * *

methodDescription: Kinetic solubility of the compound in PBS using DMSO at pH 7.4 by NMR analysis
Format: physicochemical
conditionInfo: read-out: Kinetic_solubility
observable: solubility kinetic (µg/mL)

[[record]]
inputsmiles = "COc1cccc2c1c(NS(=O)(=O)c1ccc(Cl)s1)nn2Cc1cccc(CNC(=O)C(C)(C)O)c1"
observable = "solubility kinetic"
unitlabel = "µg/mL"
reportedresult = 270


* * *

methodDescription: Lipophilicity, log D of the compound by chromatographic analysis
Assay type: physicochemical
// returns f unless chromatographic logD is strictly below 3, in which case t

[[record]]
molecule = "COc1cccc2c1c(NS(=O)(=O)c1ccc(Cl)s1)nn2Cc1cccc(CNC(C)=O)c1"
classname = "f"

[[record]]
molecule = "COc1cccc2c1c(NS(=O)(=O)c1ccc(Cl)s1)nn2Cc1ccnc(CNC(C)=O)c1"
classname = "t"

[[record]]
molecule = "COc1cccc2c1c(NS(=O)(=O)c1ccc(Cl)s1)nn2Cc1cccc(CNC2COC2)c1"
classname = "f"

[[record]]
molecule = "COc1c(F)ccc2c1c(NS(=O)(=O)c1ccc(Cl)s1)nn2Cc1cccc(CNC(=O)C(C)(C)O)c1"
classname = "f"

[[record]]
molecule = "COc1cccc2c1c(NS(=O)(=O)c1ccc(Cl)s1)nn2Cc1cccc(CNC(=O)C2COC2)c1"
classname = "f"

[[record]]
molecule = "CC(=O)NCc1cccc(Cn2nc(NS(=O)(=O)c3ccc(Cl)s3)c3c(O)cccc32)c1"
classname = "t"

[[record]]
molecule = "CC(=O)NCc1cccc(Cn2nc(NS(=O)(=O)c3ccc(Cl)s3)c3c(C(C)(C)O)cccc32)c1"
classname = "t"

[[record]]
molecule = "COc1cccc2c1c(NS(=O)(=O)c1ccc(Cl)s1)nn2Cc1cccc(CNC(=O)C(C)(C)N)c1"
classname = "f"

[[record]]
molecule = "CC(=O)NCc1cccc(Cn2nc(NS(=O)(=O)c3ccc(Cl)s3)c3c(Cl)cccc32)c1"
classname = "f"

[[record]]
molecule = "CC(=O)NCc1cccc(Cn2nc(NS(=O)(=O)c3ccc(Cl)s3)c3c(CO)cccc32)c1"
classname = "t"

[[record]]
molecule = "CC(=O)NCc1cccc(Cn2nc(NS(=O)(=O)c3ccc(Cl)s3)c3c(C(C)O)cccc32)c1 (stereo not drawn)"
classname = "t"

[[record]]
molecule = "COc1cccc2c1c(NS(=O)(=O)c1ccc(Cl)s1)nn2Cc1cccc(CNC(=O)[C@H]2COCCN2)c1"
classname = "f"

[[record]]
molecule = "COc1ccc(F)c2c1c(NS(=O)(=O)c1ccc(Cl)s1)nn2Cc1cccc(CNC(C)=O)c1"
classname = "f"

[[record]]
molecule = "COc1cccc2c1c(NS(=O)(=O)c1ccc(Cl)s1)nn2Cc1cccc(CNC(=O)[C@@H]2CCCCN2)c1"
classname = "f"

[[record]]
molecule = "COc1ccc(COc2nc(Br)cnc2NS(=O)(=O)c2ccc(C)cc2)cc1OCCN(C)C"
classname = "t"

[[record]]
molecule = "COc1cccc2c1c(NS(=O)(=O)c1ccc(Cl)c(Cl)c1)nn2Cc1cccc(CNC(=O)C(C)(C)O)c1"
classname = "f"

[[record]]
molecule = "COc1cccc2c1c(NS(=O)(=O)c1cccc(Cl)c1)nn2Cc1cccc(CNC(=O)C(C)(C)O)c1"
classname = "f"

[[record]]
molecule = "CC(=O)NCc1cccc(Cn2nc(NS(=O)(=O)c3ccc(Cl)s3)c3c(C(C)=O)cccc32)c1"
classname = "f"


* * *

subjectOfTest: C-X-C chemokine receptor type 4 (Homo sapiens)
Sequence (P61073 whole entry): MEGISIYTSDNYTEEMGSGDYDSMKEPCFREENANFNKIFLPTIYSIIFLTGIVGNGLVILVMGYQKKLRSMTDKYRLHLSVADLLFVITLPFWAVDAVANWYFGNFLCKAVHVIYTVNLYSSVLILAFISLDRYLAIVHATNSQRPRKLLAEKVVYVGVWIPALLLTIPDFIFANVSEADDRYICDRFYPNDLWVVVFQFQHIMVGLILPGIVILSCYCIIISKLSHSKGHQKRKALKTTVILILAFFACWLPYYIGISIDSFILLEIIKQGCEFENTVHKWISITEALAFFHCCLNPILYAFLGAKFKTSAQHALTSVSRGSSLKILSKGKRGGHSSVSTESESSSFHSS
methodDescription: Antagonist activity at CXCR4 receptor (unknown origin) by [35S]GTPgammaS binding assay
observable: IC50

[[record]]
inputsmiles = "COc1cccc2c1c(NS(=O)(=O)c1ccc(Cl)s1)nn2Cc1cccc(CNC(=O)C(C)(C)O)c1"
reportedresult = "> 10 µM"


* * *

methodDescription: Equilibrium solubility of the compound in Britton-Robinson buffer at pH 2 after 24 hrs by HPLC analysis
Assay type: physicochemical
observable: solubility thermodynamic at 24 h (µg/mL)

[[record]]
inputsmiles = "COc1cccc2c1c(NS(=O)(=O)c1ccc(Cl)s1)nn2Cc1cccc(CNC(=O)C(C)(C)O)c1"
reportedresult = 3


* * *

methodDescription: Lipophilicity, log D of the compound by chromatographic analysis
Assay type: physicochemical
This section presents compounds with their documented chromatographic logD values.
observable: chromatographic logD

[[record]]
compound = "COc1cccc2c1c(NS(=O)(=O)c1ccc(Cl)s1)nn2Cc1cccc(CNC(=O)C2CCCO2)c1 (stereo not drawn)"
reportedresult = 4.9

[[record]]
compound = "COc1cccc2c1c(NS(=O)(=O)c1ccc(Cl)s1)nn2Cc1cccc(CNC(=O)C2COCCN2C)c1 (single isomer, unassigned; isomer B)"
reportedresult = 4.4

[[record]]
compound = "CC(=O)NCc1cccc(Cn2nc(NS(=O)(=O)c3ccc(Cl)s3)c3c(C(F)F)cccc32)c1"
reportedresult = 3.7

[[record]]
compound = "COc1cccc2c1c(NS(=O)(=O)c1ccc(Cl)s1)nn2Cc1cccc(CNC(=O)C(C)(C)O)c1"
reportedresult = 4.3

[[record]]
compound = "COc1cccc2c1c(NS(=O)(=O)c1ccc(Cl)s1)nn2Cc1cccc(CNC(=O)C2CCOCC2)c1"
reportedresult = 4.4

[[record]]
compound = "COc1c(F)ccc2c1c(NS(=O)(=O)c1ccc(Cl)s1)nn2Cc1cccc(CNC(C)=O)c1"
reportedresult = 4.1

[[record]]
compound = "COc1cccc2c1c(NS(=O)(=O)c1cccc(Cl)c1Cl)nn2Cc1cccc(CNC(=O)C(C)(C)O)c1"
reportedresult = 4.7

[[record]]
compound = "COc1cccc2c1c(NS(=O)(=O)c1ccc(C)c(F)c1)nn2Cc1cccc(CNC(=O)C(C)(C)O)c1"
reportedresult = 4.5


* * *

methodDescription: in vivo
conditionInfo: CD, rat, iv, 1 mg/kg
observable: half-life (h)

[[record]]
molecule = "CC(=O)NCc1cccc(Cn2nc(NS(=O)(=O)c3ccc(Cl)s3)c3c(O)cccc32)c1"
unitlabel = "h"
reportedresult = 1.2

[[record]]
molecule = "COc1cccc2c1c(NS(=O)(=O)c1ccc(Cl)s1)nn2Cc1cccc(CNC(=O)[C@@H]2CCCCN2)c1"
unitlabel = "h"
reportedresult = 3

[[record]]
molecule = "CN[C@H](C)C(=O)NCc1cccc(Cn2nc(NS(=O)(=O)c3ccc(Cl)s3)c3c(OC)cccc32)c1"
unitlabel = "h"
reportedresult = 0.8

[[record]]
molecule = "COc1cccc2c1c(NS(=O)(=O)c1ccc(Cl)s1)nn2Cc1cccc(CNC(=O)C(C)(C)N)c1"
unitlabel = "h"
reportedresult = 1.3

[[record]]
molecule = "COc1cccc2c1c(NS(=O)(=O)c1ccc(Cl)s1)nn2Cc1cccc(CNC(=O)C2COCCN2C)c1 (single isomer, unassigned; isomer B)"
unitlabel = "h"
reportedresult = 1.3

[[record]]
molecule = "COc1cc(F)cc2c1c(NS(=O)(=O)c1ccc(Cl)s1)nn2Cc1cccc(CNC(=O)C(C)(C)O)c1"
unitlabel = "h"
reportedresult = 1.8

[[record]]
molecule = "COc1cccc2c1c(NS(=O)(=O)c1ccc(Cl)s1)nn2Cc1cccc(CNC(=O)[C@@H]2COCCN2)c1"
unitlabel = "h"
reportedresult = 1.2

[[record]]
molecule = "COc1cccc2c1c(NS(=O)(=O)c1ccc(Cl)s1)nn2Cc1cccc(CNC(=O)C(C)(C)O)c1"
unitlabel = "h"
reportedresult = 2.5

[[record]]
molecule = "CC(=O)NCc1cccc(Cn2nc(NS(=O)(=O)c3ccc(Cl)s3)c3c(C(C)O)cccc32)c1 (centres undefined)"
unitlabel = "h"
reportedresult = 3.7


Measured values drawn from ChEMBL document CHEMBL2321840 for this set.
